molecular target: recombinant CTSL1 (Fasciola hepatica, UniProt Q7JNQ9); assay: Cathepsin L1; format: biochemical; details: read-out: IC50 in CTSL1 titration experiments; 10 point titration, triplicate
valueType: IC50

> print(dat)
                                   molecule  valuetype  reportedmeasurement
1  CN1CCc2cccc3c2[C@@H]1Cc1ccc(O)c(O)c1-3.Cl.O [CID 6852389]       IC50            > 59.6 µM

Attribution: paper PMC4641816
